I'd be grateful if you could share measured IC50 for these entries.
Molecular target: Caspase-9 (Homo sapiens (Human))
Sequence (P55211 whole entry): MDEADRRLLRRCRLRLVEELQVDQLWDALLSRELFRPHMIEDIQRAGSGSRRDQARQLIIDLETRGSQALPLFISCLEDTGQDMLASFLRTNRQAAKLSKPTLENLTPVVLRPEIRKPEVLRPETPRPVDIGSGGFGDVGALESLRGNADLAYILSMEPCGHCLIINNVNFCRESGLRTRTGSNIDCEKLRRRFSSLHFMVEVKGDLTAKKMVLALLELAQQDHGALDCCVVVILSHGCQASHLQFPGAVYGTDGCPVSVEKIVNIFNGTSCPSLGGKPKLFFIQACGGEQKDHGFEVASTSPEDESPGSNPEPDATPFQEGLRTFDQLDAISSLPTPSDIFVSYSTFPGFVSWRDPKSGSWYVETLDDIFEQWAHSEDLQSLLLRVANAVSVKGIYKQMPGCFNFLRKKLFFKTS
Assay: Caspase-9 Inhibitor Drug Screening Kit, fluorometric (AFC liberation)
Format: biochemical
Settings: 30-minute incubation at 37° C.; approximations of the average values; read-out: Caspase enzymatic activity, IC50 (uM) Caspase 9
Square brackets hold non-standard residues; d marks the D form. Peptide text beside a SMILES is read from it. * marks the point of attachment. Phg = N[C@H](C(=O)O)c1ccccc1; Cbz = O=C(OCc1ccccc1)*; OtBu = CC(C)(C)O*

// IC50 lookup, compound = COC(=O)C[C@@H](/C=C/S(C)(=O)=O)NC(=O)[C@@H](NC(=O)[C@@H](NC(=O)[C@H](CC(=O)OC)NC(=O)OCc1ccccc1)c1ccccc1)C(C)C [Compound 101] , result: > 3.33 µM

Value of IC50 reported for the compound CC(C)[C@H](NC(=O)[C@@H](NC(=O)[C@H](CC(=O)O)NC(=O)OCc1ccccc1)C1Cc2ccccc2C1)C(=O)N[C@H](/C=C/S(=O)(=O)C(C)C)CC(=O)O [Compound 68] is > 3.33 µM

Note to self: IC50 recorded for CC(C)[C@H](NC(=O)[C@H](Cc1ccc2ccccc2n1)NC(=O)[C@H](CC(=O)O)NC(=O)OCc1ccccc1)C(=O)N[C@H](/C=C(\Cl)S(C)(=O)=O)CC(=O)O [Compound 48] was 1.2 µM

IC50 recorded for this compound, CC(C)[C@H](NC(=O)[C@H](Cc1ccc2ccccc2n1)NC(=O)[C@H](CC(=O)O)NC(=O)OCc1ccccc1)C(=O)N[C@H](/C=C/S(=O)(=O)Oc1ccccc1)CC(=O)O [Compound 65] , is 0.3 µM

Entry CC(C)[C@H](NC(=O)[C@H](Cc1ccc2ccccc2n1)NC(=O)[C@H](CC(=O)O)NC(=O)OCc1ccccc1)C(=O)N[C@H](/C=C/S(=O)(=O)c1ccccc1)CC(=O)O [Compound 63] , IC50 reported as > 3.33 µM

IC50 reported for this compound CC(C)[C@H](NC(=O)C(Cc1ccc2ccccc2n1)NC(=O)[C@H](CC(=O)O)NC(=O)OCc1ccccc1)C(=O)N[C@H](/C=C/S(=O)(=O)c1ccccc1)CC(=O)O (some centres unmarked) [Compound 70] : > 10 µM

So for Cc1ccc(S(=O)(=O)N[C@@H](Cc2ccc3ccccc3n2)C(=O)N[C@H](C(=O)N[C@H](/C=C(\Cl)S(C)(=O)=O)CC(=O)O)C(C)C)cc1 [Compound 50] , the logged IC50 turned out to be > 3.33 µM

CC(C)[C@H](NC(=O)[C@@H](NC(=O)[C@H](CC(=O)OC(C)(C)C)NC(=O)OCc1ccccc1)c1ccccc1)C(=O)O [Compound 16, Z-Asp(β-tert-butyl)-Phg-Val-OH] (Cbz-Asp(OtBu)-[Phg]-Val-OH) yielded IC50 of > 3.33 µM

Noted for CC(C)[C@H](NC(=O)[C@H](Cc1ccc2ccccc2n1)NC(=O)[C@H](CC(=O)OC(C)(C)C)NC(=O)OCc1ccccc1)C(=O)N[C@H](/C=C/S(=O)(=O)N1CCOCC1)CC(=O)OC(C)(C)C [Compound 66] : its IC50 reads > 3.33 µM

Measured IC50, CC(C)[C@H](NC(=O)[C@H](Cc1ccc(O)cc1)NC(=O)[C@H](CC(=O)O)NC(=O)OCc1ccccc1)C(=O)N[C@H](/C=C/S(C)(=O)=O)CC(=O)O [Compound 76, Z-Asp-Tyr-Val-Aspmethyl vinyl sulfone] : > 3.33 µM

GET /value?item= CC(C)[C@H](NC(=O)C(Cc1ccc2ccccc2n1)NC(=O)[C@H](CC(=O)O)NC(=O)OCc1ccccc1)C(=O)N[C@H](/C=C/S(C)(=O)=O)CC(=O)O (some centres unmarked) [Compound 71] &field=IC50 returns > 10 µM

Item: CC(C)[C@H](NC(=O)[C@@H](NC(=O)[C@H](CC(=O)O)NC(=O)OCc1ccccc1)c1ccccc1)C(=O)N[C@H](/C=C/S(=O)(=O)c1ccccc1)CC(=O)O [Compound 69, Z-Asp-Phg-Val-Asp-phenyl Vinylsulfone] | IC50: > 3.33 µM

Lookup result for CC(C)[C@H](NC(=O)[C@H](CCC(=O)O)NC(=O)[C@H](Cc1ccc(O)cc1)NC(=O)OCc1ccccc1)C(=O)N[C@H](/C=C/S(C)(=O)=O)CC(=O)O [Compound 82] ; measured IC50: 1.6 µM

Kindly note the recorded IC50 for CC(C)[C@H](NC(=O)[C@H](Cc1c[nH]c2ccccc12)NC(=O)[C@H](CC(=O)O)NC(=O)OCc1ccccc1)C(=O)N[C@H](/C=C/S(C)(=O)=O)CC(=O)O [Compound 88, Z-Asp-Trp-Val-Aspmethyl vinyl sulfone] , which is > 3.33 µM

The measurements presented in this section are drawn from patent US9045524B2.
